Data provenance is PubChem BioAssay (NCI).

Test system: IGROV1 ovarian
MEASUREMENT DESCRIPTION: NCI-60 one-dose screen, 48 h
SETTINGS: 10 µM unless noted
This is part of a sample that, as a whole, favours compounds with a hit. Of some 83,000 tested, about 20% had one in any assay. Activity calls are given as the source filed them. The calls were made as follows: active = growth percent below 10; inactive = the rest.
// allowed return values: 1 (yes) (active), 0 (no) (inactive)

The examples below pair each entry with its known result.
O=C(Nc1cccc(Cn2c(=O)[nH]c3ccc(Oc4ncccn4)cc3c2=O)c1)c1cccc(Cl)c1    0 (no)
Cc1cc(C(=O)Nc2cc(Nc3ncccc3-c3ncnc4nc[nH]c34)ccc2F)cc(C(C)(C)C#N)c1    1 (yes)
CC1(C)CC(=O)C2=C(C1)OC(C(=O)c1ccccc1)C2c1cccc(Oc2ccccc2)c1 (stereo not given)    0 (no)
O=C1OCC2=C1C(c1cccc(F)c1)c1cc3c(cc1N2CCO)CCC3 (stereo not given)    0 (no)

We now examine a further molecule.
Query: Assay outcome for `Cc1cccc(C)c1NC(=O)Nc1ccccc1` : what was it?
Response: 0 (no)
